# System: HL-1
# test_description: relative cell viability (CellTiter-Glo) vs DMSO control (% of DMSO control); higher = more viable cells
# test_settings: oxygen condition: normoxia 72 h; 5000 nM
Where a name gives a salt, the structure may show the parent alone.
reported_property: relative cell viability
Answer with a number only.

Challenge: Query: relative cell viability; subject: CCC(COC(=O)c1cc(OC)c(OC)c(OC)c1)(c1ccccc1)N(C)C (centres undefined)
Response given: 104

Challenge: Consider the compound shown here: CCC1(c2cccc(O)c2)CCCCN(C)C1 (centres undefined) [Meptazinol HCl] What is its recorded relative cell viability?
Response given: 108

Challenge: Fill blank: measured relative cell viability of the compound O=C(O[C@H]1C[C@H]2CC[C@@H](C1)[N+]21CCCC1)C(O)(c1ccccc1)c1ccccc1 [Trospium chloride] is ____.
Response given: 101

// switching to the query compound
Challenge: Fill blank: measured relative cell viability of the compound CN1C(=O)COc2c(C(=O)NC3CN4CCC3CC4)cc(Cl)cc21 (centres undefined) [Azasetron HCl] is ____.
Response given: 107

---

# System: HL-1
# test_description: relative cell viability (CellTiter-Glo) vs DMSO control (% of DMSO control); higher = more viable cells
# test_settings: oxygen condition: hypoxia 48 h (1% O2) + reoxygenation 24 h; 5000 nM
Counter-ions that a name gives are not always drawn.
reported_property: relative cell viability

Some compounds with recorded relative cell viability:
Challenge: Could you tell me which relative cell viability is on file for CCN(C)C(=O)Oc1cccc([C@H](C)N(C)C)c1 [Rivastigmine tartrate] ?
Response given: 109

Challenge: Look at this compound and give its reported relative cell viability. Cc1cccc([C@H](C)c2c[nH]cn2)c1C [Dexmedetomidine]
Response given: 107

Challenge: So what does the record say about relative cell viability for C[C@]12CCC(=O)C=C1C=C[C@@H]1[C@@H]2CC[C@@]2(C)[C@H]1CC[C@@]2(O)CCC(=O)O [Potassium Canrenoate] ?
Response given: 103

Challenge: Name the recorded relative cell viability for COc1ccc(OC)c(C(O)C(C)N)c1 (centres undefined) [Methoxamine HCl] .
Response given: 102

Challenge: Suppose we examine the compound C#C[C@]1(O)C=C[C@H]2[C@@H]3CCC4=CC(=O)CC[C@@H]4[C@H]3CC[C@@]21CC ; what relative cell viability value has been reported?
Response given: 107

Challenge: For CN1c2ccccc2C(NCCCCCCC(=O)O)c2ccc(Cl)cc2S1(=O)=O (centres undefined) [Tianeptine sodium] , what is its reported relative cell viability?
Response given: 106

Challenge: What value of relative cell viability has been reported for the following compound? CC(C)N(CCNC(=O)CN1CCCC1=O)C(C)C
Response given: 112

Challenge: If you can, please state the reported relative cell viability value of Cc1cccc(C)c1NC(=O)CN1CCCC1=O .
Response given: 104

Next item in the queue.
Challenge: // relative cell viability lookup, key: CN(C)C(=O)Oc1cccc([N+](C)(C)C)c1 [Neostigmine bromide]
Response given: 113

---

Reported relative cell viability values are given for each entry in this list.
# Tested on: HL-1
# test_description: relative cell viability (CellTiter-Glo) vs DMSO control (% of DMSO control); higher = more viable cells
# test_settings: oxygen condition: hypoxia 48 h (1% O2) + reoxygenation 24 h; 200 nM
Structures can show the parent of a compound that is named as a salt.
// no unit string in output, number only

Would you please look over these solved cases?
Challenge: Name the reported relative cell viability value associated with the molecule CC[N+]1(C)CCCC(OC(=O)C(O)(c2ccccc2)c2ccccc2)C1 (centres undefined) [Pipenzolate Bromide]
Response given: 98.3

Challenge: Endpoint output: relative cell viability of CNCC(=O)c1ccc(O)c(O)c1 [Adrenalone HCl] . Value?
Response given: 101

Challenge: # input molecule: CCC1(c2ccc(N)cc2)CCC(=O)NC1=O (centres undefined) [Aminoglutethimide] ; wanted: its relative cell viability
Response given: 99.3

Continuing:
Challenge: Can you share its relative cell viability? I mean this molecule: CN(C)C(=O)Oc1ccc[n+](C)c1 [Pyridostigmine Bromide]
Response given: 104

Challenge: Look at this molecule and give its reported relative cell viability. C/C=C(\C)C(=O)N[C@@H](c1ccccc1)[C@@H](O)C(=O)O[C@H]1C[C@@]2(O)[C@@H](OC(=O)c3ccccc3)[C@@H]3[C@]4(OC(C)=O)CO[C@@H]4C[C@H](O)[C@@]3(C)C(=O)[C@H](OC(C)=O)C(=C1C)C2(C)C
Response given: 28

Challenge: relative cell viability lookup needed for COC(=O)C1=CCCN(C)C1 , thanks.
Response given: 108

Challenge: Field request: relative cell viability | item: NCCc1c[nH]c2ccc(O)cc12 [Serotonin HCl]
Response given: 96.6

Challenge: Consider the molecule C[C@@H]1O[C@@H](O[C@H]2C[C@@H](O)[C@]3(CO)[C@H]4[C@H](O)C[C@]5(C)[C@@H](C6=CC(=O)OC6)CC[C@]5(O)[C@@H]4CC[C@]3(O)C2)[C@H](O)[C@H](O)[C@H]1O and give its measured relative cell viability.
Response given: 103

Challenge: Which relative cell viability reading was recorded for the molecule Cc1cccc(C)c1NC(=O)CN1CCCC1=O ?
Response given: 99.1

Data origin: the supplement of paper PMC8371130
